# TARGET_OR_TEST_SYSTEM: hVR1 (Homo sapiens)
# Construct: expressed in transfected cells
# Sequence (Q8NER1 whole entry): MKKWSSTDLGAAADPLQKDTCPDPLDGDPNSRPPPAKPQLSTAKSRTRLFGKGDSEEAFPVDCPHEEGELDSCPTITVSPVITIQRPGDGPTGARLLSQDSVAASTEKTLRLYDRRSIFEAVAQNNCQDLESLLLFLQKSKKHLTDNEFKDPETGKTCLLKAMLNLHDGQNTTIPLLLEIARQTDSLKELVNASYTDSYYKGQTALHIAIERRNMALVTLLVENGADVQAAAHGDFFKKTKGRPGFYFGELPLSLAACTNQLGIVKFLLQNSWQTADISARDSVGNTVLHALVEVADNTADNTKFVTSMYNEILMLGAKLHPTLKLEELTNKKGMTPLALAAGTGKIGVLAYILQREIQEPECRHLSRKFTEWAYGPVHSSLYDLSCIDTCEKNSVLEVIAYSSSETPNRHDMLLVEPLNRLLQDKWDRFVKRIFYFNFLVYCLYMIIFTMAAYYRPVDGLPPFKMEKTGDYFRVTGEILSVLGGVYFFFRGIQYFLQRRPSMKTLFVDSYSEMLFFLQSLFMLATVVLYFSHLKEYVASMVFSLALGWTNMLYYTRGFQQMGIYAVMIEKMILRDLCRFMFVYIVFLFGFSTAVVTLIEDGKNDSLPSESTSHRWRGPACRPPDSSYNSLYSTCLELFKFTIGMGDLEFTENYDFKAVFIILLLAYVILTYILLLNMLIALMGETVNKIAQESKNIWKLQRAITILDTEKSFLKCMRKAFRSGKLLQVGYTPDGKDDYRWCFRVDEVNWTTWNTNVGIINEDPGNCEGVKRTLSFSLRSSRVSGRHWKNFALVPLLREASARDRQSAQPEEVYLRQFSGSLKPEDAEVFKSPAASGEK
# TEST_DESCRIPTION: hVR1 FLIPR (Fluorometric Image Plate Reader) screening assay
# Assay type: cell-based
# SETTINGS: transfected CHO cells stably expressing hVR1; inhibition of calcium increase after agonist (50 nM capsaicin or MES buffer pH 5.2); agonist not given
READOUT_NAME: IC50
Include the unit right after the number.

Lab entry: hVR1 (Homo sapiens) assay, molecule O=S(=O)(NCc1cccc(C(F)(F)F)c1)c1ccc2sc(CO)nc2c1 , IC50 = 2870 nM

Values were extracted from patent US20080114041A1.
